# Target or system: UniProtKB P00749
Doc: threshold 10 nM (exclusive). Items with IC50 beneath it return 1 (yes); others return 0 (no).

Lab note: IC50 threshold 10 nM. Does this compound come in strictly under it? CCN(CC)c1ccc2c(-c3ccccc3C(=O)N3CCN(C(=O)CCCCCCCn4cc(COCCOCCOC(=O)NC(Cc5ccc(NC(=N)N)cc5)P(=O)(Oc5ccccc5)Oc5ccccc5)nn4)CC3)c3ccc(=[N+](CC)CC)cc-3oc2c1 (centres unmarked) 0 (no)

Lab note: IC50 threshold 10 nM. Does this compound come in strictly under it? N=C(N)Nc1ccc(CC(NC(=O)OCCCc2cn(CCOCCOCCOCCNC(=O)CCCC[C@@H]3SC[C@@H]4NC(=O)N[C@@H]43)nn2)P(=O)(Oc2ccccc2)Oc2ccccc2)cc1.O=C(O)C(F)(F)F (some centres unmarked) [Final compound 7, 2,2,2-trifluoroacetate] 0 (no)

Lab note: IC50 threshold 10 nM. Does this compound come in strictly under it? C#CCOCCOC(=O)NC(Cc1ccc(NC(=N)N)cc1)P(=O)(Oc1ccccc1)Oc1ccccc1.O=C(O)C(F)(F)F (centres unmarked) [Intermediate 55] 1 (yes)

Lab note: IC50 threshold 10 nM. Does this compound come in strictly under it? Cl.N=C(N)Nc1ccc(CC(NC(=O)OCCCc2cn(CCOCCOCCOCCNC(=O)c3ccc(F)cc3)nn2)P(=O)(Oc2ccccc2)Oc2ccccc2)cc1 (centres unmarked) [Final compound 8, hydrochloride] 0 (no)

Lab note: IC50 threshold 10 nM. Does this compound come in strictly under it? O=C(O)C(F)(F)F.[N-]=[N+]=NCCCCCCOC(=O)NC(Cc1ccc(NC(=N)N)cc1)P(=O)(Oc1ccccc1)Oc1ccccc1 (centres unmarked) [Intermediate 59, 2,2,2-trifluoroacetate] 1 (yes)

Lab note: IC50 threshold 10 nM. Does this compound come in strictly under it? O=C(O)C(F)(F)F.[N-]=[N+]=NCCOCCOC(=O)NC(Cc1ccc(NC(=N)N)cc1)P(=O)(Oc1ccccc1)Oc1ccccc1 (centres unmarked) [Intermediate 60] 1 (yes)

Lab note: IC50 threshold 10 nM. Does this compound come in strictly under it? O=C(O)C(F)(F)F.[N-]=[N+]=NCCOCCOCCOC(=O)NC(Cc1ccc(NC(=N)N)cc1)P(=O)(Oc1ccccc1)Oc1ccccc1 (centres unmarked) [Intermediate 61, 2,2,2-trifluoroacetate] 0 (no)

Lab note: IC50 threshold 10 nM. Does this compound come in strictly under it? C#CCOCCOCCOCCOC(=O)NC(Cc1ccc(NC(=N)N)cc1)P(=O)(Oc1ccccc1)Oc1ccccc1.O=C(O)C(F)(F)F (centres unmarked) [Intermediate 57, 2,2,2-trifluoroacetate] 0 (no)

Lab note: IC50 threshold 10 nM. Does this compound come in strictly under it? CCN(CC)c1ccc2c(-c3ccccc3C(=O)N3CCN(C(=O)CCCCCCCn4cc(COCCOCCOCCOC(=O)NC(Cc5ccc(NC(=N)N)cc5)P(=O)(Oc5ccccc5)Oc5ccccc5)nn4)CC3)c3ccc(=[N+](CC)CC)cc-3oc2c1 (centres unmarked) 0 (no)

Lab note: IC50 threshold 10 nM. Does this compound come in strictly under it? O=C(O)C(F)(F)F.[N-]=[N+]=NCCOCCOCCOCCOC(=O)NC(Cc1ccc(NC(=N)N)cc1)P(=O)(Oc1ccccc1)Oc1ccccc1 (centres unmarked) [Intermediate 62, 2,2,2-trifluoroacetate] 0 (no)

Lab note: IC50 threshold 10 nM. Does this compound come in strictly under it? C#CCOCCOCCOC(=O)NC(Cc1ccc(NC(=N)N)cc1)P(=O)(Oc1ccccc1)Oc1ccccc1.O=C(O)C(F)(F)F (centres unmarked) [Intermediate 56, 2,2,2-trifluoroacetate] 1 (yes)

Lab note: IC50 threshold 10 nM. Does this compound come in strictly under it? CCN(CC)c1ccc2c(-c3ccccc3C(=O)N3CCN(C(=O)CCCCCCCn4cc(CCCOC(=O)NC(Cc5ccc(NC(=N)N)cc5)P(=O)(Oc5ccccc5)Oc5ccccc5)nn4)CC3)c3ccc(=[N+](CC)CC)cc-3oc2c1.O=C(O)C(F)(F)F.[Cl-] (centres unmarked) 0 (no)

Lab note: IC50 threshold 10 nM. Does this compound come in strictly under it? C#CCCCOC(=O)NC(Cc1ccc(NC(=N)N)cc1)P(=O)(Oc1ccccc1)Oc1ccccc1.O=C(O)C(F)(F)F (centres unmarked) [Intermediate 58, 2,2,2-trifluoroacetate] 1 (yes)

Lab note: IC50 threshold 10 nM. Does this compound come in strictly under it? C#CCCCOC(=O)NC(Cc1ccc(NC(=N)N)cc1)P(=O)(Oc1ccc(NC(C)=O)cc1)Oc1ccc(NC(C)=O)cc1 (centres unmarked) [Intermediate 63] 1 (yes)

Lab note: IC50 threshold 10 nM. Does this compound come in strictly under it? CC1=CC(C)=[N+]2C1=C(CCCCCCCn1cc(CCCOC(=O)NC(Cc3ccc(NC(=N)N)cc3)P(=O)(Oc3ccccc3)Oc3ccccc3)nn1)c1c(C)cc(C)n1[B-]2(F)F.O=C(O)C(F)(F)F (centres unmarked) 0 (no)

Lab note: IC50 threshold 10 nM. Does this compound come in strictly under it? CCN(CC)c1ccc2c(-c3ccccc3C(=O)N3CCN(C(=O)CCCCCCCn4cc(COCCOC(=O)NC(Cc5ccc(NC(=N)N)cc5)P(=O)(Oc5ccccc5)Oc5ccccc5)nn4)CC3)c3ccc(=[N+](CC)CC)cc-3oc2c1.O=C(O)C(F)(F)F.[Cl-] (centres unmarked) 0 (no)

Lab note: IC50 threshold 10 nM. Does this compound come in strictly under it? CCN(CC)c1ccc2c(-c3ccccc3C(=O)N3CCN(C(=O)CCCCCCCn4cc(CCCOC(=O)NC(Cc5ccc(NC(=N)N)cc5)P(=O)(Oc5ccc(NC(C)=O)cc5)Oc5ccc(NC(C)=O)cc5)nn4)CC3)c3ccc(=[N+](CC)CC)cc-3oc2c1.O=C(O)C(F)(F)F.[Cl-] (centres unmarked) 0 (no)

---

# Target or system: thrombin (from human plasma) (Homo sapiens, UniProt P00734)
# Construct: thrombin (from human plasma, Sigma)
# Test details: Selectivity: thrombin inhibition, substrate Biophen CS-21(66)
# Stated conditions: 15 min preincubation; Tris buffer pH 8.3; 580 μM substrate
Doc: threshold 10 µM (exclusive). Items with IC50 beneath it return rule met; others return rule not met.

Lab note: IC50 threshold 10 µM. Does this molecule come in strictly under it? C#CCCCOC(=O)NC(Cc1ccc(NC(=N)N)cc1)P(=O)(Oc1ccccc1)Oc1ccccc1.O=C(O)C(F)(F)F (centres unmarked) [Intermediate 58, 2,2,2-trifluoroacetate] rule not met

Lab note: IC50 threshold 10 µM. Does this molecule come in strictly under it? N=C(N)Nc1ccc(CC(NC(=O)OCCCc2cn(CCOCCOCCOCCNC(=O)CCCC[C@@H]3SC[C@@H]4NC(=O)N[C@@H]43)nn2)P(=O)(Oc2ccccc2)Oc2ccccc2)cc1.O=C(O)C(F)(F)F (some centres unmarked) [Final compound 7, 2,2,2-trifluoroacetate] rule not met

Lab note: IC50 threshold 10 µM. Does this molecule come in strictly under it? C#CCOCCOCCOCCOC(=O)NC(Cc1ccc(NC(=N)N)cc1)P(=O)(Oc1ccccc1)Oc1ccccc1.O=C(O)C(F)(F)F (centres unmarked) [Intermediate 57, 2,2,2-trifluoroacetate] rule not met

Lab note: IC50 threshold 10 µM. Does this molecule come in strictly under it? O=C(O)C(F)(F)F.[N-]=[N+]=NCCOCCOC(=O)NC(Cc1ccc(NC(=N)N)cc1)P(=O)(Oc1ccccc1)Oc1ccccc1 (centres unmarked) [Intermediate 60] rule not met

Lab note: IC50 threshold 10 µM. Does this molecule come in strictly under it? CCN(CC)c1ccc2c(-c3ccccc3C(=O)N3CCN(C(=O)CCCCCCCn4cc(COCCOC(=O)NC(Cc5ccc(NC(=N)N)cc5)P(=O)(Oc5ccccc5)Oc5ccccc5)nn4)CC3)c3ccc(=[N+](CC)CC)cc-3oc2c1.O=C(O)C(F)(F)F.[Cl-] (centres unmarked) [Final compound 1] rule met

Lab note: IC50 threshold 10 µM. Does this molecule come in strictly under it? CCN(CC)c1ccc2c(-c3ccccc3C(=O)N3CCN(C(=O)CCCCCCCn4cc(COCCOCCOC(=O)NC(Cc5ccc(NC(=N)N)cc5)P(=O)(Oc5ccccc5)Oc5ccccc5)nn4)CC3)c3ccc(=[N+](CC)CC)cc-3oc2c1 (centres unmarked) [Final compound 2] rule not met

Lab note: IC50 threshold 10 µM. Does this molecule come in strictly under it? CCN(CC)c1ccc2c(-c3ccccc3C(=O)N3CCN(C(=O)CCCCCCCn4cc(CCCOC(=O)NC(Cc5ccc(NC(=N)N)cc5)P(=O)(Oc5ccc(NC(C)=O)cc5)Oc5ccc(NC(C)=O)cc5)nn4)CC3)c3ccc(=[N+](CC)CC)cc-3oc2c1.O=C(O)C(F)(F)F.[Cl-] (centres unmarked) [Final compound 5] rule met

Lab note: IC50 threshold 10 µM. Does this molecule come in strictly under it? CCN(CC)c1ccc2c(-c3ccccc3C(=O)N3CCN(C(=O)CCCCCCCn4cc(COCCOCCOCCOC(=O)NC(Cc5ccc(NC(=N)N)cc5)P(=O)(Oc5ccccc5)Oc5ccccc5)nn4)CC3)c3ccc(=[N+](CC)CC)cc-3oc2c1 (centres unmarked) [Final compound 3] rule not met

Lab note: IC50 threshold 10 µM. Does this molecule come in strictly under it? C#CCOCCOCCOC(=O)NC(Cc1ccc(NC(=N)N)cc1)P(=O)(Oc1ccccc1)Oc1ccccc1.O=C(O)C(F)(F)F (centres unmarked) [Intermediate 56, 2,2,2-trifluoroacetate] rule not met

Lab note: IC50 threshold 10 µM. Does this molecule come in strictly under it? C#CCOCCOC(=O)NC(Cc1ccc(NC(=N)N)cc1)P(=O)(Oc1ccccc1)Oc1ccccc1.O=C(O)C(F)(F)F (centres unmarked) [Intermediate 55] rule not met

Lab note: IC50 threshold 10 µM. Does this molecule come in strictly under it? O=C(O)C(F)(F)F.[N-]=[N+]=NCCCCCCOC(=O)NC(Cc1ccc(NC(=N)N)cc1)P(=O)(Oc1ccccc1)Oc1ccccc1 (centres unmarked) [Intermediate 59, 2,2,2-trifluoroacetate] rule met

Lab note: IC50 threshold 10 µM. Does this molecule come in strictly under it? O=C(O)C(F)(F)F.[N-]=[N+]=NCCOCCOCCOC(=O)NC(Cc1ccc(NC(=N)N)cc1)P(=O)(Oc1ccccc1)Oc1ccccc1 (centres unmarked) [Intermediate 61, 2,2,2-trifluoroacetate] rule not met

Lab note: IC50 threshold 10 µM. Does this molecule come in strictly under it? C#CCCCOC(=O)NC(Cc1ccc(NC(=N)N)cc1)P(=O)(Oc1ccc(NC(C)=O)cc1)Oc1ccc(NC(C)=O)cc1 (centres unmarked) [Intermediate 63] rule met

Lab note: IC50 threshold 10 µM. Does this molecule come in strictly under it? Cl.N=C(N)Nc1ccc(CC(NC(=O)OCCCc2cn(CCOCCOCCOCCNC(=O)c3ccc(F)cc3)nn2)P(=O)(Oc2ccccc2)Oc2ccccc2)cc1 (centres unmarked) [Final compound 8, hydrochloride] rule not met

Lab note: IC50 threshold 10 µM. Does this molecule come in strictly under it? O=C(O)C(F)(F)F.[N-]=[N+]=NCCOCCOCCOCCOC(=O)NC(Cc1ccc(NC(=N)N)cc1)P(=O)(Oc1ccccc1)Oc1ccccc1 (centres unmarked) [Intermediate 62, 2,2,2-trifluoroacetate] rule not met

Lab note: IC50 threshold 10 µM. Does this molecule come in strictly under it? CCN(CC)c1ccc2c(-c3ccccc3C(=O)N3CCN(C(=O)CCCCCCCn4cc(CCCOC(=O)NC(Cc5ccc(NC(=N)N)cc5)P(=O)(Oc5ccccc5)Oc5ccccc5)nn4)CC3)c3ccc(=[N+](CC)CC)cc-3oc2c1.O=C(O)C(F)(F)F.[Cl-] (centres unmarked) [Final compound 4] rule met
